- Tested on: Lefty1
- METHOD: Lefty1 binders on small-molecule microarrays, primary screen, biochemical, small-molecule microarray, 635/667 nm fluorescence (AID 1139)
- PARTICULARS: small-molecule microarray binding, fluorescence 635/667; higher = more signal
Listed below: composite z-score values for each entry.

MOLECULE	composite z-score
CCOC(=O)[C@H](CC(C)C)NC(=O)CCC1CC(OC(=O)NCc2ccc3c(c2)OCO3)CC2(CCCC(COC(=O)NCCc3ccccc3OC)O2)O1 (some centres undefined)	0.787
COC(=O)[C@H](C)NC(=O)CCC1CC(OC(=O)NCc2ccc3c(c2)OCO3)CC2(CCCC(COC(=O)NCCc3ccc(Cl)cc3)O2)O1 (some centres undefined)	0.398
COC(=O)C(C(=O)OC)C1CCCC(=O)C1 (centres undefined)	0.804
CCCNC(=O)OC[C@H]1O[C@H](CCON=C[C@@H](C)[C@H](OCc2ccccc2)C(C)C)C=C[C@@H]1Oc1ccc(OC)cc1	0.401

---

- METHOD: basal MM1S mitochondrial membrane potential changes, profiling panel, cell-based, JC-1 fluorescence, 24 h, 100 nL compound (AID 1170)
- PARTICULARS: higher = more signal

COMPOUND	z-score
CCN1C(=O)[C@H]2[C@H]3[C@H](O)[C@H](O)CC(=NNC(=O)OCc4ccccc4)[C@H]3CC[C@H]2C1=O	0.409
CCOC(=O)[C@H](Cc1ccccc1)NC(=O)CCC1CC(OC(=O)NCc2cccc3ccccc23)CC2(CCCC(COC(=O)NCC3CCCCC3)O2)O1 (stereo partly drawn)	-0.296
CCOC(=O)[C@H](Cc1ccccc1)NC(=O)CCC1CC(OC(=O)NCc2ccc3c(c2)OCO3)CC2(CCCC(COC(=O)NCCOC)O2)O1 (stereo partly drawn)	-1.37

---

- METHOD: basal 3T3-L1 adipocyte mitochondrial potential changes, profiling panel, cell-based, JC-1 fluorescence, 3T3-L1 adipocytes, 24 h, 100 nL compound (AID 1168)
- PARTICULARS: JC-1 mitochondrial fluorescence, higher = more signal, called active from +8 up or from −8 down
Decision: z-score compared against -0.2; not below it gives Met, below it gives Not met.

MOLECULE	ASSIGNED CLASS
CC(C)CON=C1C[C@@H](O)[C@@H](O)[C@@H]2[C@@H]3C(=O)N([C@@H](C)c4ccccc4)C(=O)[C@@H]3CC[C@@H]12	Not met
CCOC(=O)[C@H](Cc1ccccc1)NC(=O)CCC1CC(OC(=O)NCCc2ccc(F)cc2)CC2(CCCC(COC(=O)NCCC(C)C)O2)O1 (some centres not stated)	Met
CC(CCN1CCCc2nc(C)c(C)cc21)=NO[C@@H](C)c1cn([C@H](CO)Cc2ccccc2)nn1	Met
CCOC(=O)[C@H](Cc1ccccc1)NC(=O)CCC1CC(OC(=O)NCc2ccc3c(c2)OCO3)CC2(CCCC(COC(=O)NCCOc3ccccc3)O2)O1 (some centres not stated)	Met
COc1cccc([C@H]2Oc3ccc(OC)cc3C(=NO[C@@H](C)c3cc(-c4c(C)cc(C)cc4C)no3)[C@@H]2O)c1	Not met
COC(=O)[C@H](Cc1ccccc1)NC(=O)[C@@H](C)CO	Not met
C[C@@H](c1ccccc1)N1C(=O)[C@H]2[C@H]3[C@H](O)[C@H](O)CC(=NOCc4ccccc4)[C@@H]3CC[C@H]2C1=O	Not met

---

- TGT: Torsin-1A (Homo sapiens)
- METHOD: small-molecule binders of mutant TOR1A in lysate, primary screen, cell lysate, small-molecule microarray, COS7 lysate, 635/667 nm fluorescence (AID 1150);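 further: score pools 667 nm emission and signal to noise measuring lysate protein binding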
- PARTICULARS: COS7 hTOR1A mutant lysate, 635 nm fluorescence, higher = more signal
Listed below: composite z-score values for each entry.
REPORTED METRIC: composite z-score

COMPOUND	RESULT VALUE
C[C@@H](c1ccccc1)N1C(=O)[C@H]2[C@H]3[C@H](O)[C@H](O)CC(=NOC[C@@H](O)COCc4ccco4)[C@H]3CC[C@H]2C1=O	2.95
CCOC(=O)CCN1C(=O)[C@H]2[C@H]3[C@H](O)[C@H](O)CC(=NNC(=O)OCc4ccc(OC)cc4)[C@H]3CC[C@H]2C1=O	0.111
CC(C)CN1CCc2nc(-c3ccccc3)c3c(c2C1)CO[C@@H](C)C3	0.571
COC(=O)[C@H](C)NC(=O)CCC1CC(OC(=O)NCc2cccc3ccccc23)CC2(CCCC(COC(=O)NCCCN3CCCC3=O)O2)O1 (stereo partly drawn)	0.745
COc1ccc(OC[C@@H](CO)OC)cc1	0.304
COC(=O)[C@@H]1CC[C@H](C)[C@@H](c2ccc(Br)cc2)N1C[C@@H](O)CN=[N+]=[N-]	-0.117
CSCC[C@@H]1NC(=O)CC=C[C@@H](C)COC(=O)[C@H](C)COC1=O	3.77
O=C1C=C[C@@H](O)[C@@H]2[C@@H]3C(=O)N(Cc4ccccc4)C(=O)[C@@H]3CC[C@@H]12	0.376
CO[C@@H](C(C)C)[C@@H](C)C1OC(=O)CC1O (stereo partly drawn)	-0.0794
COc1ccc(O[C@H]2C=C[C@@H](c3ccccc3)O[C@@H]2CO)cc1	0.153
CCOC(=O)[C@H](CC(C)C)NC(=O)CCC1CC(OC(=O)NCc2ccc3c(c2)OCO3)CC2(CCCC(COC(=O)NCCc3ccc(Cl)cc3)O2)O1 (stereo partly drawn)	0.361
O=C1C=C[C@@H](O)[C@@H]2[C@@H]3C(=O)N(C4CCCCC4)C(=O)[C@@H]3CC[C@@H]12	0.595
CC(=O)OC[C@H]1O[C@H](CC=NOC(C)CN2CCCc3nc(C)c(C)cc32)C=C[C@@H]1OC(C)=O (stereo partly drawn)	-0.0919
O=C1[C@H]2[C@H]3[C@H](O)[C@H](O)CC(=NO[C@@H]4O[C@H](CO)[C@@H](O)[C@H](O)[C@H]4O)[C@H]3CC[C@H]2C(=O)N1C[C@@H]1CCCO1	0.952
O=C1[C@H]2[C@H]3[C@H](O)[C@H](O)CC(=NOCc4ccccc4)[C@@H]3CC[C@H]2C(=O)N1c1cccc(Oc2ccccc2)c1	0.0495
CCOC(=O)[C@H](CC(C)C)NC(=O)CCC1CC(OC(=O)NCCc2ccc(F)cc2)CC2(CCCC(COC(=O)NCCCN3CCCC3=O)O2)O1 (stereo partly drawn)	0.1
COCC#Cc1ccc([C@@H]2N[C@H](C(=O)O)CC[C@H]2C)cc1	0.0923
CC#CCOCCC=C1c2ccccc2[C@@H](OC)[C@@H]1C	0.481

---

- Tested on: XIP peptide (Xip251-270) binding
- METHOD: small-molecule binders of XIP peptide, primary screen, biochemical, small-molecule microarray, fluorescence 635/667 nm, 0.1 µg/mL protein (AID 1182)
- PARTICULARS: fluorescent protein binding, 635 nm, higher = more signal, called active from +8 up or from −8 down
REPORTED METRIC: composite z-score

COMPOUND	REPORTED METRIC	RESULT VALUE
COc1ccc(COC(=O)NN=C2C[C@@H](O)[C@@H](O)[C@@H]3[C@@H]4C(=O)N([C@@H](C)c5ccccc5)C(=O)[C@@H]4CC[C@@H]23)cc1	composite z-score	-0.216
CO[C@@H]1C=CCC(=O)N[C@@H](C)C(=O)OC[C@@H](OC)[C@H](C)C=CCC(=O)OC[C@H]1C	composite z-score	0.551
C#CCCCON=C1C[C@@H](O)[C@@H](O)[C@@H]2[C@@H]3C(=O)N([C@@H](C)c4ccccc4)C(=O)[C@@H]3CC[C@@H]12	composite z-score	-0.406
CCCNC(=O)OC[C@H]1O[C@H](CCON=C[C@@H](C)[C@H](OCc2ccccc2)C(C)C)C=C[C@@H]1Oc1ccc(OC)cc1	composite z-score	0.196
C[C@@H]1CC[C@H]2C(=O)OC(CN3C(=O)c4ccccc4C3=O)CN2[C@H]1c1ccc(Br)cc1 (stereo partly drawn)	composite z-score	-0.212
CC(C)[C@@H](OCc1ccccc1)[C@H](C)C=NO[C@@H](C)c1cn([C@H](CO)Cc2ccccc2)nn1	composite z-score	0.334
CCOC(=O)[C@H](CC(C)C)NC(=O)CCC1CC(OC(=O)NCc2ccc3c(c2)OCO3)CC2(CCCC(COC(=O)NCc3ccccc3)O2)O1 (stereo partly drawn)	composite z-score	0.117
CCc1cc2c(nc1CC)CCN(CCC(C)=NOC[C@@H](C)[C@H](OCc1ccccc1)C(C)C)C2	composite z-score	-0.259

---

- TGT: Epidermal growth factor receptor (Homo sapiens)
- METHOD: EGFR binders on small-molecule microarrays, primary screen, biochemical, small-molecule microarray, 635 nm fluorescence (AID 1104);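 further: score merges 667 nm emission intensity with spot signal to noise over triplicate slides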
- PARTICULARS: EGFR binding, higher = more signal
REPORTED METRIC: composite z-score

MOLECULE	REPORTED METRIC	RESULT VALUE
C[C@H]1CC[C@H]2C(=O)OC(COc3ccc(C(C)(C)C)cc3)CN2[C@@H]1c1ccc(Br)cc1 (stereo not given in full)	composite z-score	-0.128
CO[C@@H]1C=CCC(=O)N[C@@H](C)C(=O)OC[C@@H](OC)[C@H](C)C=CCC(=O)OC[C@H]1C	composite z-score	1.07
O=C(NN=C1C[C@@H](O)[C@@H](O)[C@@H]2[C@@H]3C(=O)N(Cc4ccccc4)C(=O)[C@@H]3CC[C@H]12)OCc1ccccc1	composite z-score	0.39
COc1cccc([C@H]2Oc3ccc(OC)cc3C(=NO[C@@H](C)c3cc(-c4c(C)cc(C)cc4C)no3)[C@@H]2O)c1	composite z-score	-2.38
C#CCCCON=C1C[C@@H](O)[C@@H](O)[C@@H]2[C@@H]3C(=O)N([C@@H](C)c4ccccc4)C(=O)[C@@H]3CC[C@@H]12	composite z-score	0.377
Cc1cc2c(nc1C)CCCCN2CC(O)CN1CCCc2nc(-c3ccc(Br)cc3)ccc21 (stereo not given)	composite z-score	0.597
CON=C(C)CCN1CCCc2nc(C)c(C)cc21	composite z-score	0.695
COCOc1ccc(Br)cc1C(=O)C=Cc1ccc2c(c1)OCO2	composite z-score	0.524
COc1ccc(COC(=O)NN=C2C[C@@H](O)[C@@H](O)[C@@H]3[C@@H]4C(=O)N(C[C@@H]5CCCO5)C(=O)[C@@H]4CC[C@@H]23)cc1	composite z-score	-0.127
O=C1C2=CC[C@H]3C(=O)N(Cc4ccccc4)C(=O)[C@H]3[C@H]2[C@H](O)[C@@H]2O[C@H]12	composite z-score	0.41
CCN1C(=O)[C@H]2[C@H]3[C@H](O)[C@H](O)CC(=NO[C@@H]4O[C@H](COC(C)=O)[C@@H](OC(C)=O)[C@H](OC(C)=O)[C@H]4OC(C)=O)[C@@H]3CC[C@H]2C1=O	composite z-score	0.591
COCC#Cc1ccc([C@@H]2N[C@H](C(=O)O)CC[C@H]2C)cc1	composite z-score	0.362
CC(=O)OC[C@H]1O[C@H](CC=NOC[C@@H](O)[C@H]2O[C@@H]3OC(C)(C)O[C@@H]3[C@H]2O)C=C[C@@H]1OC(C)=O	composite z-score	0.317
Cc1ccc2[nH]c3nc(CCCn4ccnc4-c4ccccc4)nnc3c2c1	composite z-score	0.32
COC(=O)CC=C[C@@H](C)[C@@H](C=NOC[C@@H](C)[C@H](OCc1ccccc1)C(C)C)NS(=O)(=O)c1ccc(C)cc1	composite z-score	-0.0573
CC(C)[C@@H](OCc1ccccc1)[C@H](C)CON=C1[C@H]2CCn3c(=O)n(-c4ccccc4)c(=O)n3[C@H]2[C@H](O)[C@@H]2O[C@H]12	composite z-score	0.329
O=C1[C@H]2[C@H]3[C@H](O)[C@H](O)CC(=NO[C@@H]4O[C@H](CO)[C@@H](O)[C@H](O)[C@H]4O)[C@@H]3CC[C@H]2C(=O)N1C1CCCCC1	composite z-score	0.46
COc1cccc([C@H]2Oc3ccc(OC)cc3C(=NOCC[C@@H]3C=C[C@H](OC(C)=O)[C@@H](COC(C)=O)O3)[C@@H]2O)c1	composite z-score	0.274
CC(C)=CCCC(C)=CCON=C1C[C@@H](O)[C@@H](O)[C@@H]2[C@@H]3C(=O)N([C@@H](C)c4ccccc4)C(=O)[C@@H]3CC[C@@H]12	composite z-score	0.407
CON=C(C)CCN1CCc2nc(-c3ccccc3)c(-c3ccccc3)cc2C1	composite z-score	0.629
CC(=O)OC[C@H]1O[C@@H](ON=C(C)C)[C@H](OC(C)=O)[C@@H](OC(C)=O)[C@@H]1OC(C)=O	composite z-score	-0.246
CC(CCN1CCCc2nc(C)c(C)cc21)=NO[C@H](C)c1cn([C@H](CO)Cc2ccccc2)nn1	composite z-score	0.596
C=CC[C@@H]1C=C[C@H](Oc2ccc(C)cc2)[C@@H](COC(=O)NCc2cccc3ccccc23)O1	composite z-score	-0.156
COC(=O)[C@H](C)NC(=O)CCC1CC(OC(=O)NCc2cccc3ccccc23)CC2(CCCC(COC(=O)NCCOc3ccccc3)O2)O1 (stereo not given in full)	composite z-score	0.148
CCOC(=O)[C@H](Cc1ccccc1)NC(=O)CCC1CC(OC(=O)NCc2cccc3ccccc23)CC2(CCCC(COC(=O)NCCc3ccccc3OC)O2)O1 (stereo not given in full)	composite z-score	0.454
